Reported protein stability index values for the following sequences.
# PROTOCOL SUMMARY: protein stability index of a GFP-peptide fusion (yeast GPS) (PSI 1-4); higher = more stable; sorted into four equal gates, so the index is relative within each strain
# CONDITION PARAMETERS: pdr5∆

Below are worked cases with known answers.
>>> print(df.to_string())
               query_sequence  value_reported
0    KMFIQRILAMCVKNHGQ [YCS4]             2.1
1  LITKANKVSYYGNPTSK [RTT102]            1.89

Consider the additional sequence presented here.
Problem: protein stability index for TNWIIYPLWVMAKQLIR [CSN12] ?
Result: 1.2
